- Assay: Oral bioavailability in CD-1 mouse at 5 mg/kg administered via gavage after 24 hrs by LC-MS/MS analysis
- Type: ADME, organism-based
- Stated Conditions: in vivo
Attribute Measured: bioavailability (%)
Numbers only here, please. The scale is %.

Qu. Item under review: COc1ccc(Br)c2c1B(O)O[C@@H]2CN.Cl . Reported bioavailability?
Ans. 72

* * *

- Assay: Tmax in C57BL/6 mouse at 26.1 mg/kg administered as single dose via oral gavage measured up to 24 hrs by LC-MS/MS analysis
- Format: ADME, organism-based
- Stated Conditions: in vivo
Attribute Measured: Tmax (h)
Numbers only here, please. The scale is h.

Qu. Item under review: CCOc1ccc(Br)c2c1B(O)O[C@@H]2CN . Reported Tmax?
Ans. 2

* * *

- Assay: Clearance in C57BL/6 mouse at 28.5 mg/kg, iv administered as single dose measured up to 8 hrs by LC-MS/MS analysis
- Format: ADME, organism-based
- Stated Conditions: in vivo
Attribute Measured: clearance (mL/min/kg)
Numbers only here, please. The scale is mL/min/kg.

Qu. Item under review: CCOc1ccc(Br)c2c1B(O)O[C@@H]2CN . Reported clearance?
Ans. 6.6

* * *

- Test system: cytoplasmic LeuRS
- Assay: Selectivity index, ratio of EC50 for inhibition of cytoplasmic LeuRS in HepG2 cells assessed as reduction in protein synthesis to MIC for Mycobacterium tuberculosis H37Rv
- Assay type: toxicity, cell-based
- Stated Conditions: human, read-out: Selectivity Index
Attribute Measured: selectivity ratio
The answer should be a number; do not append a unit.

Qu. Item under review: CCOc1ccc(Cl)c2c1B(O)O[C@@H]2CN . Reported selectivity ratio?
Ans. 196

Qu. Ok, now Cl.NC[C@H]1OB(O)c2c(OCCO)ccc(Cl)c21
Ans. 1710

Qu. Ok, now NC[C@H]1OB(O)c2c(OCCO)ccc(Br)c21
Ans. 1450

Qu. Ok, now COc1ccc(Br)c2c1B(O)O[C@@H]2CN.Cl
Ans. 970

Qu. Ok, now COc1ccc(Cl)c2c1B(O)O[C@@H]2CN
Ans. 1050

Qu. Ok, now NC[C@H]1OB(O)c2c3c(cc(Br)c21)OCCO3
Ans. 1320

Qu. Ok, now CCOc1ccc(Br)c2c1B(O)O[C@@H]2CN
Ans. 305

Qu. Ok, now Cl.NC[C@H]1OB(O)c2c3c(cc(Cl)c21)OCCO3
Ans. 1040

* * *

- Assay: Cmax in C57BL/6 mouse at 30 mg/kg administered as single dose via oral gavage measured up to 24 hrs by LC-MS/MS analysis
- Type: ADME, organism-based
- Parameters: dose 30 mg/kg, route oral
- Stated Conditions: in vivo
Attribute Measured: Cmax (ng/mL)
Numbers only here, please. The scale is ng/mL.

Qu. Item under review: Cl.NC[C@H]1OB(O)c2c3c(cc(Cl)c21)OCCO3 . Reported Cmax?
Ans. 6210

Qu. Ok, now Cl.NC[C@H]1OB(O)c2c(OCCO)ccc(Cl)c21
Ans. 17800

* * *

- Assay: Half life in C57BL/6 mouse at 28.5 mg/kg, iv administered as single dose measured up to 8 hrs by LC-MS/MS analysis
- Type: ADME, organism-based
- Stated Conditions: in vivo
Attribute Measured: half-life

Qu. Item under review: CCOc1ccc(Br)c2c1B(O)O[C@@H]2CN . Reported half-life?
Ans. 3.1 h

* * *

- Assay: Tmax in CD-1 mouse at 5 mg/kg administered via oral gavage after 24 hrs by LC-MS/MS analysis
- Type: ADME, organism-based
- Stated Conditions: in vivo
Attribute Measured: Tmax
Could you give the number and then its unit, please?

Qu. Item under review: COc1ccc(Br)c2c1B(O)O[C@@H]2CN.Cl . Reported Tmax?
Ans. 15 min

* * *

- Test System: Leucine--tRNA ligase, cytoplasmic (Homo sapiens, UniProt Q9P2J5)
- Sequence (Q9P2J5 whole entry): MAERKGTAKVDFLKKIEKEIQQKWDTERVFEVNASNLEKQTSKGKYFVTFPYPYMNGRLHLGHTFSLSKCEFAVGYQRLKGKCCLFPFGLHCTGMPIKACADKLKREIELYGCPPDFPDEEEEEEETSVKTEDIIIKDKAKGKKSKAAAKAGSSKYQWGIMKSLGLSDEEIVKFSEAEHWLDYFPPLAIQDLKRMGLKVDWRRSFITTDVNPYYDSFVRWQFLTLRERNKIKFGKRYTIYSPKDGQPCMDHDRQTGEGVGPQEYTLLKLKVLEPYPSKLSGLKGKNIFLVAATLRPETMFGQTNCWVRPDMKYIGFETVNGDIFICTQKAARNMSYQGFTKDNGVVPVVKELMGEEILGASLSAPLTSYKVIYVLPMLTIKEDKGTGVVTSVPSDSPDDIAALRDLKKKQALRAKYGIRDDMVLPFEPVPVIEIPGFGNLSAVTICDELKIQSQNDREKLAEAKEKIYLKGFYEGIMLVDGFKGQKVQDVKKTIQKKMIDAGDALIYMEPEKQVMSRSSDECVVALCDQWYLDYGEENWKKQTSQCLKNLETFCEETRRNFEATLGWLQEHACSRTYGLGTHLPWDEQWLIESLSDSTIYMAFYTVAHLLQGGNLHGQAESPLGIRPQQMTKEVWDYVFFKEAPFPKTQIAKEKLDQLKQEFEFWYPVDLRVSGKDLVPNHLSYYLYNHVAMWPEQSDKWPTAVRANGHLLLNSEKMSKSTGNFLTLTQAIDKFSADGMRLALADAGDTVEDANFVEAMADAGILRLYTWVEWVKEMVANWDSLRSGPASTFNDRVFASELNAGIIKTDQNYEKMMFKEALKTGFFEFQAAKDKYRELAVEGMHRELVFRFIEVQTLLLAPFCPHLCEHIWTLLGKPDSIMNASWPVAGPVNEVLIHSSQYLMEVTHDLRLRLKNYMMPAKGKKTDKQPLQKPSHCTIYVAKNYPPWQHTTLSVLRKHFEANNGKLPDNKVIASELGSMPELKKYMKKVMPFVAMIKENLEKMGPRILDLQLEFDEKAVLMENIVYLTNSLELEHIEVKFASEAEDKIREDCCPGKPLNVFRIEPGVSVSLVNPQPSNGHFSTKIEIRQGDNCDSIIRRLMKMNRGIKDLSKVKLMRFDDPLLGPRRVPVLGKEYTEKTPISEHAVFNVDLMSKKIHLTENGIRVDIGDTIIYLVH
- Assay: Inhibition of human N-terminal 6His-tagged cytoplasmic LeuRS expressed in Escherichia coli BL21(DE3) assessed as […] after 20 mins by liquid scintillation counting analysis
Give pIC50 for every item shown.
Conceptually, pIC50 converts a concentration in mol/L into minus its log10.

Qu. Item under review: Cl.NC[C@H]1OB(O)c2c(OCCO)ccc(Cl)c21 . Reported pIC50?
Ans. 3.88

Qu. Ok, now NC[C@H]1OB(O)c2c(OCCO)ccc(Br)c21
Ans. 3.93

Qu. Ok, now Cl.NC[C@H]1OB(O)c2c3c(cc(Cl)c21)OCCO3
Ans. 4.02

Qu. Ok, now NC[C@H]1OB(O)c2c3c(cc(Br)c21)OCCO3
Ans. 3.93

Qu. Ok, now COc1ccc(Cl)c2c1B(O)O[C@@H]2CN
Ans. 3.59

* * *

- System: Mycobacterium tuberculosis
- Assay: Antimicrobial activity against Mycobacterium tuberculosis H37Rv
- Assay type: functional
Attribute Measured: MIC

Qu. Item under review: NCC1OB(O)c2c3c(cc(Cl)c21)OCO3 (racemic) . Reported MIC?
Ans. > 5 µM

Qu. Ok, now CCCOc1ccc(Cl)c2c1B(O)O[C@@H]2CN
Ans. 0.16 µM

Qu. Ok, now NC[C@@H]1OB(O)c2c3c(cc(Cl)c21)OCCO3
Ans. 80 µM

Qu. Ok, now CCCOc1ccc(Br)c2c1B(O)O[C@@H]2CN
Ans. 0.38 µM

Qu. Ok, now NC[C@@H]1OB(O)c2c(OCCO)ccc(Cl)c21
Ans. 5 µM

Qu. Ok, now NCC1OB(O)c2c(OCCF)ccc(Cl)c21 (racemic)
Ans. 0.2 µM

Qu. Ok, now NCC1OB(O)c2c3c(cc(Br)c21)OCCO3 (racemic)
Ans. 0.5 µM

Qu. Ok, now NCC1OB(O)c2c(Oc3ccc(Br)cc3)ccc(Br)c21 (racemic)
Ans. > 5 µM

Qu. Ok, now NCC1OB(O)c2c(Oc3ccccc3)ccc(Cl)c21 (racemic)
Ans. 5 µM

Qu. Ok, now NC[C@H]1OB(O)c2c3c(cc(Br)c21)OCCO3
Ans. 0.03 µM

Qu. Ok, now NCC1OB(O)c2c(OCC(F)F)ccc(Br)c21 (racemic)
Ans. 0.31 µM

Qu. Ok, now NCC1OB(O)c2c(OCc3ccccc3)ccc(Cl)c21 (racemic)
Ans. 5 µM

Qu. Ok, now Cl.NC[C@H]1OB(O)c2c(OCCO)ccc(Cl)c21
Ans. 0.08 µM

Qu. Ok, now CCOc1ccc(Cl)c2c1B(O)O[C@@H]2CN
Ans. 0.1 µM

Qu. Ok, now NCC1OB(O)c2c(OCc3ccccc3)ccc(Br)c21 (racemic)
Ans. 5 µM

Qu. Ok, now NCC1OB(O)c2cc(OCCO)cc(Br)c21 (racemic)
Ans. > 5 µM

Qu. Ok, now NC[C@H]1OB(O)c2c(OCCCO)ccc(Cl)c21
Ans. 0.14 µM

Qu. Ok, now NC[C@H]1OB(O)c2c(OCCCO)ccc(Br)c21
Ans. 0.3 µM

Qu. Ok, now Cl.NC[C@H]1OB(O)c2c3c(cc(Cl)c21)OCCO3
Ans. 0.08 µM

Qu. Ok, now CCOc1ccc(F)c2c1B(O)O[C@@H]2CN
Ans. 0.2 µM

Qu. Ok, now NCC1OB(O)c2c(OCC(F)F)ccc(Cl)c21 (racemic)
Ans. 0.3 µM

Qu. Ok, now CCOc1cc(Cl)c2c(c1)B(O)OC2CN (racemic)
Ans. > 5 µM

Qu. Ok, now NCC1OB(O)c2c(OCCc3ccccc3)ccc(Br)c21 (racemic)
Ans. > 5 µM

Qu. Ok, now CCCCOc1ccc(Cl)c2c1B(O)O[C@@H]2CN
Ans. 0.6 µM

Qu. Ok, now CCCCOc1ccc(Br)c2c1B(O)O[C@@H]2CN
Ans. 0.45 µM

* * *

- Test system: Mycobacterium tuberculosis
- Assay: Antimicrobial activity against Mycobacterium tuberculosis H37Rv
- Format: functional
Mark y for MIC under 0.3 µM, n if at or over.

Qu. # strict comparison: is reported MIC < 0.3 µM? input = NC[C@@H]1OB(O)c2c3c(cc(Br)c21)OCCO3
Ans. n

Qu. Ok, now NCC1OB(O)c2cc(OCCCO)cc(Cl)c21 (racemic)
Ans. n

Qu. Ok, now NCC1OB(O)c2c(OCCF)ccc(Br)c21 (racemic)
Ans. y

Qu. Ok, now NCC1OB(O)c2c3c(cc(Br)c21)OCO3 (racemic)
Ans. n

Qu. Ok, now NCC1OB(O)c2c3c(cc(Cl)c21)OCCO3 (racemic)
Ans. n

Qu. Ok, now CCOc1cc(Br)c2c(c1)B(O)OC2CN (racemic)
Ans. n

Qu. Ok, now NCC1OB(O)c2c(OCCc3ccccc3)ccc(Cl)c21 (racemic)
Ans. n

Qu. Ok, now NCC1OB(O)c2cc(OCCCO)cc(Br)c21 (racemic)
Ans. n

Qu. Ok, now CCCOc1cc(Cl)c2c(c1)B(O)OC2CN (racemic)
Ans. n

Qu. Ok, now COc1ccc(Br)c2c1B(O)O[C@@H]2CN.Cl
Ans. y

Qu. Ok, now NCC1OB(O)c2c(OCCO)ccc(Br)c21 (racemic)
Ans. y

Qu. Ok, now NCC1OB(O)c2cc(OCCO)cc(Cl)c21 (racemic)
Ans. n

Qu. Ok, now NC[C@H]1OB(O)c2c(OCCO)ccc(Br)c21
Ans. y

Qu. Ok, now CCCOc1cc(Br)c2c(c1)B(O)OC2CN (racemic)
Ans. n

Qu. Ok, now COc1ccc(Cl)c2c1B(O)O[C@@H]2CN
Ans. y

Qu. Ok, now NC[C@@H]1OB(O)c2c(OCCO)ccc(Br)c21
Ans. n

Qu. Ok, now CCOc1ccc(Br)c2c1B(O)O[C@@H]2CN
Ans. y

Qu. Ok, now NCC1OB(O)c2c(OCCO)ccc(Cl)c21 (racemic)
Ans. n

Qu. Ok, now CCOc1cccc2c1B(O)O[C@@H]2CN
Ans. n
